System: WFS1 KO INS-1 cells
Test protocol: Cell survival after high glucose, WFS1 KO INS-1 cells (first set)
Assay type: cell-based, rat
Cond: 31 mM glucose 48 h, survival normalized to % survival at 1 mM glucose
Measured quantity: cell survival after treatment with 31 mM glucose for 48 hours (glucose induced cell death)

[
  {
    "Structure": "CCCC(CCC)C(=O)O",
    "Test value": "no effect"
  },
  {
    "Structure": "CN(C)CCCN1c2ccccc2Sc2ccc(Cl)cc21",
    "Test value": "no effect"
  },
  {
    "Structure": "[Li]",
    "Test value": "no effect"
  }
]
